Data provenance is the supplement of paper PMC6897291.

Tested on: U-2932
measurement.description: growth inhibition by drug alone (1 - RLU/untreated control) (fraction); higher = stronger inhibition
run.conditions: 1000 nM; time (day): 6; 177Lu-lilotomab satetraxetan 0 ug/ml
# Lookup of reported growth inhibition by drug alone keyed by entry

Example entries and their recorded answers appear below.
COc1cc2ncnc(Nc3ccc(F)c(Cl)c3)c2cc1OCCCN1CCOCC1 [Gefitinib (Iressa)] ... -0.226
CCCCCOC(=O)Nc1nc(=O)n([C@@H]2O[C@H](C)[C@@H](O)[C@H]2O)cc1F [Capecitabine (Xeloda)] ... 0.0681

Give the value of growth inhibition by drug alone reported for the following: Nc1nccc(-c2ccc3noc(-c4ccc(Cl)cc4)c3c2)n1 [PIM-1 Inhibitor 2]
0.0111

Give the value of growth inhibition by drug alone reported for the following: `Cc1csc(-c2nnc(Nc3ccc(Oc4ncccc4-c4ccnc(N)n4)cc3)c3ccccc23)c1`
0.252

Give the value of growth inhibition by drug alone reported for the following: CNC(=O)c1ccccc1Sc1ccc2c(/C=C/c3ccccn3)n[nH]c2c1 [Axitinib]
-0.0631

Give the value of growth inhibition by drug alone reported for the following: `N#CC[C@H](C1CCCC1)n1cc(-c2ncnc3[nH]ccc23)cn1`
-0.125

Give the value of growth inhibition by drug alone reported for the following: `OCCn1cc(-c2ccc3c(c2)CC/C3=N\O)c(-c2ccncc2)n1`
-0.12

Give the value of growth inhibition by drug alone reported for the following: `Cn1cc(-c2ccc3nnc(C(F)(F)c4ccc5ncccc5c4)n3n2)cn1`
0.0327

Give the value of growth inhibition by drug alone reported for the following: CC(=O)O[C@@]12CO[C@@H]1C[C@H](O)[C@@]1(C)C(=O)[C@H](O)C3=C(C)[C@@H](OC(=O)[C@H](O)[C@@H](NC(=O)OC(C)(C)C)c4ccccc4)C[C@@](O)([C@@H](OC(=O)c4ccccc4)[C@H]21)C3(C)C [Docetaxel (Taxotere)]
0.98

Give the value of growth inhibition by drug alone reported for the following: COc1cc2nccc(Oc3ccc(NC(=O)C4(C(=O)Nc5ccc(F)cc5)CC4)cc3)c2cc1OC [XL-184 free base (Cabozantinib)]
-0.036

Give the value of growth inhibition by drug alone reported for the following: CCOc1cc2ncc(C#N)c(Nc3ccc(F)c(Cl)c3)c2cc1NC(=O)/C=C/CN(C)C [Pelitinib (EKB-569)]
0.148

Give the value of growth inhibition by drug alone reported for the following: `CC1(COc2ccc3c(c2)ncn3-c2ccc3cccc(N4CCC(N)CC4)c3n2)COC1`
0.0785

Give the value of growth inhibition by drug alone reported for the following: `c1ccc2c(-c3cnn4cc(-c5ccc(N6CCNCC6)cc5)cnc34)ccnc2c1`
0.125

Give the value of growth inhibition by drug alone reported for the following: CC[C@]1(O)C[C@@H]2CN(CCc3c([nH]c4ccccc34)[C@@](C(=O)OC)(c3cc4c(cc3OC)N(C)[C@H]3[C@@](O)(C(=O)OC)[C@H](OC(C)=O)[C@]5(CC)C=CCN6CC[C@]43[C@@H]65)C2)C1 [Vinblastine]
0.978

Give the value of growth inhibition by drug alone reported for the following: CNC(=O)c1cc(Oc2ccc(NC(=O)Nc3ccc(Cl)c(C(F)(F)F)c3)c(F)c2)ccn1 [Regorafenib (BAY 73-4506)]
0.217

Give the value of growth inhibition by drug alone reported for the following: O=C(c1cc(Cc2n[nH]c(=O)c3ccccc23)ccc1F)N1CCN(C(=O)C2CC2)CC1 [Olaparib (AZD2281)]
0.0776

Give the value of growth inhibition by drug alone reported for the following: `CC(C)n1nc(-c2ccc3oc(N)nc3c2)c2c(N)ncnc21`
0.929

Give the value of growth inhibition by drug alone reported for the following: Nc1ccc(-c2ccc3ncc4ccc(=O)n(-c5cccc(C(F)(F)F)c5)c4c3c2)cn1 [Torin 2]
0.981

Give the value of growth inhibition by drug alone reported for the following: CCC(C)n1ncn(-c2ccc(N3CCN(c4ccc(OCC5COC(Cn6cncn6)(c6ccc(Cl)cc6Cl)O5)cc4)CC3)cc2)c1=O (stereo unspecified) [Itraconazole (Sporanox)]
-0.00563

Give the value of growth inhibition by drug alone reported for the following: `CS(=O)(=O)N1CCc2c(-c3cnc(N)nc3)nc(N3CCOCC3)nc21`
0.366

Give the value of growth inhibition by drug alone reported for the following: NC(=O)c1ccc(I)c([N+](=O)[O-])c1 [Iniparib (BSI-201)]
-0.0297

Give the value of growth inhibition by drug alone reported for the following: `Cc1[nH]c(/C=C2\C(=O)Nc3ccc(S(=O)(=O)Cc4c(Cl)cccc4Cl)cc32)c(C)c1C(=O)N1CCC[C@@H]1CN1CCCC1`
-0.0292

Give the value of growth inhibition by drug alone reported for the following: `NC(=O)Nc1cc(-c2cccc(F)c2)sc1C(=O)N[C@H]1CCCNC1`
0.962

Give the value of growth inhibition by drug alone reported for the following: `Cc1nn(-c2ccccc2)c(C)c1C=NN1CCN(Cc2ccccc2)CC1`
-0.16
